- EXPERIMENT: probe aXIP binding to arrayed compounds – biochemical, NeuroSMM set, 635/667 nm fluorescence, primary screen (AID 1119);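 further: probe is the protein aXip251-270 applied at 1 µg/mL to compound-printed slides; binding of probe to printed compounds measured as 667 nm fluorescence plus signal to noise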
- EXPERIMENTAL_CONTEXT: small-molecule microarray, higher = more signal, called active from +8 up or from −8 down

# COMPOUND, composite Z-score
data = [
    ("COC(=O)[C@@]1(Cc2ccccc2)[C@H]2c3cc(C(=O)N(C)C)n(Cc4ccc(C(F)(F)F)nc4)c3C[C@H]2CN1C(=O)c1ccccc1", -0.031),
    ("C=CCN1Cc2ccccc2[C@H]2OC(c3ccc(OCCCO)cc3)=N[C@@]2(CCS(=O)(=O)c2ccccc2)C1=O", 1.79),
    ("COCCOC(=O)N1C(=O)[C@@]2(c3cc(C#CCNC(N)=O)ccc31)[C@H](C(=O)Nc1nc3ccccc3s1)[C@H]1C(=O)O[C@H](c3ccccc3)[C@H](c3ccccc3)N1[C@@H]2c1ccccc1OCCO", -0.523),
    ("CCOC(=O)C[C@H]1[C@H](OC(=O)Cc2ccc3c(c2)OCO3)[C@@H](NC(=O)c2ccc3ccccc3n2)c2cc(OCCCO)ccc2N1C(=O)Cc1ccc(OC)cc1", 0.378),
    ("CN(C)c1ccc(C(O)C2C=CC3C(=O)N(Cc4ccccc4)C(=O)C3N2n2cnnc2)cc1 (centres undefined)", 0.111),
    ("CCCNC(=O)[C@@]1(c2ccc([N+](=O)[O-])cc2)CC(=O)N(C(C)C)[C@@H]1c1ccc(CO)cc1", -0.0527),
    ("N#Cc1ccc(C(O)C2C=CC3C(=O)NC(=O)C3N2Nc2ccc(Cl)cc2Cl)cc1 (centres undefined)", 0.868),
    ("CCCNC(=O)[C@@]1(Sc2ccc(C)cc2)CC(=O)N(Cc2ccccc2Cl)[C@@H]1c1ccc(CO)cc1I", -0.588),
    ("CCCCCC1=C2CNC(Cc3ccccc3)(C(=O)OC)C=C2C(C)C1=O (centres undefined)", 0.881),
    ("CC(C)N1C(=O)c2ccccc2[C@@H](C(=O)NCC(F)(F)F)[C@@H]1c1ccc(CO)cc1", 0.492),
    ("CN1C(=O)C2C(C1=O)C1C=C(CCCO)C2C(C2CC2)N1Cc1cccc(OC(F)(F)F)c1 (centres undefined)", 0.35),
    ("COc1ccc(C(=O)Nc2ccc3c(c2)[C@@]2(O[C@H](CCO)[C@@H]([Si](C)(C)c4ccc(OC)cc4)[C@@H]2C)C(=O)N3Cc2ccccc2)cc1", 0.004),
    ("N#Cc1ccc(-c2cccc(=O)o2)cc1", -0.0662),
    ("C=CCC(OC(C)=O)[C@@H]1[C@@H](N(Cc2ccc(-c3cccc(C(F)(F)F)c3)o2)C(=O)c2ccc(-c3ccccc3)cc2)c2cc(OCCCO)ccc2N1C(=O)c1ccc2ccccc2c1 (some centres undefined)", -0.0127),
    ("COCCOC(=O)N1C(=O)[C@@]2(c3cc(C#Cc4ccc(OC)cc4)ccc31)[C@H](c1ccc(OCCO)cc1)N1[C@H](c3ccccc3)[C@H](c3ccccc3)OC(=O)[C@H]1[C@@H]2C(=O)NC[C@H](O)c1ccccc1", 0.217),
    ("O=C(O)[C@H](Cc1ccccc1)n1cc(C2(O)CCCCC2)nn1", 0.217),
    ("CCOC(=O)C[C@H]1[C@H](OC(=O)c2ccccc2-c2ccccc2)[C@@H](NC(=O)c2ccc3ccccc3c2)c2cc(OCCCO)ccc2N1C(=O)Cc1ccc(OC)cc1", 0.25),
    ("CCC(CC)C(O)C1C=CC2C(=O)N(c3ccccc3)C(=O)C2N1Nc1ccccc1F (centres undefined)", 0.204),
    ("COc1ccc([Si](C)(C)[C@@H]2[C@@H](CC(=O)N3Cc4ccccc4C[C@H]3CO)O[C@]3(C(=O)N(Cc4cccc(N5CCOC5=O)c4)c4ccccc43)[C@H]2C)cc1", 0.844),
]
